# Assay Overview: 28 day oral toxicology study, rat
# Type: in vivo, Han Wistar rat
# Particulars: both sexes, Han Wistar, plasma; 1 month rat (po), 500 mg/kg/day
Property: AUC (µg·h/mL)
Give bare numbers, in µg·h/mL.

Incoming: Recorded AUC for "C[C@@H]1CN2c3c(cc4c(N5C(=O)OC[C@@H]5C)noc4c3F)CC3(C(=O)NC(=O)NC3=O)[C@H]2[C@H](C)O1" , please?
Outgoing: 2460

###

# Assay Overview: comparative haematology analysis in the rat, oral dosing
# Particulars: rat, in vivo, po, 100 mg/kg
Property: AUC (µM·h)
Give bare numbers, in µM·h.

Incoming: What AUC value was documented for this compound, "C[C@@H]1CN2c3c(cc4c(-n5cncn5)noc4c3F)CC3(C(=O)NC(=O)NC3=O)[C@H]2[C@H](C)O1" ?
Outgoing: 950

###

# Assay Overview: Dog pharmacokinetics
# Assay type: in vivo, Beagle dog
# Particulars: beagle, dog, plasma
# Experimental: AZD0914 was analyzed in mouse, rat, dog, monkey plasma using a qualified method which was later validated for human plasma analysis. The validated human method is described below and is representative of the approach taken in other species. AZD0914 was determined in human plasma prepared with K2EDTA as an anticoagulant. […] After evaporating to dryness under a stream of nitrogen, the residue was reconstituted and quantitated by reverse phase HPLC-MS/MS against a standard curve from 1.00 to 5000 ng/ml. […]
Property: Dog F (%)
Answers are plain numbers, in %.

// solved cases for Dog F follow
INSERT INTO measurements (structure_smiles_string, value_unit, number) VALUES
  ('C[C@@H]1CN2c3c(cc4c(-n5cncn5)noc4c3F)CC3(C(=O)NC(=O)NC3=O)[C@H]2[C@H](C)O1', '%', 99),
  ('C[C@@H]1CN2c3c(cc4c(C(=O)NCC(F)(F)F)noc4c3F)CC3(C(=O)NC(=O)NC3=O)[C@H]2[C@H](C)O1', '%', 74),
  ('Cc1noc2c(F)c3c(cc12)CC1(C(=O)NC(=O)NC1=O)[C@H]1[C@H](C)O[C@H](C)CN31', '%', 47),
  ('C[C@@H]1CN2c3c(cc4c(N5C(=O)OC[C@@H]5C)noc4c3F)CC3(C(=O)NC(=O)NC3=O)[C@H]2[C@H](C)O1', '%', 71);

Continue with the compound presented below.
Incoming: Which Dog F reading was recorded for the compound "Cc1nnc(-c2noc3c(F)c4c(cc23)CC2(C(=O)NC(=O)NC2=O)[C@H]2[C@H](C)O[C@H](C)CN42)o1" ?
Outgoing: 32

###

Would you mind telling me the reported IC50 of each entry?
# Tested System: Ito/Kv4.3 (Homo sapiens)
# Sequence (Q9UK17 whole entry): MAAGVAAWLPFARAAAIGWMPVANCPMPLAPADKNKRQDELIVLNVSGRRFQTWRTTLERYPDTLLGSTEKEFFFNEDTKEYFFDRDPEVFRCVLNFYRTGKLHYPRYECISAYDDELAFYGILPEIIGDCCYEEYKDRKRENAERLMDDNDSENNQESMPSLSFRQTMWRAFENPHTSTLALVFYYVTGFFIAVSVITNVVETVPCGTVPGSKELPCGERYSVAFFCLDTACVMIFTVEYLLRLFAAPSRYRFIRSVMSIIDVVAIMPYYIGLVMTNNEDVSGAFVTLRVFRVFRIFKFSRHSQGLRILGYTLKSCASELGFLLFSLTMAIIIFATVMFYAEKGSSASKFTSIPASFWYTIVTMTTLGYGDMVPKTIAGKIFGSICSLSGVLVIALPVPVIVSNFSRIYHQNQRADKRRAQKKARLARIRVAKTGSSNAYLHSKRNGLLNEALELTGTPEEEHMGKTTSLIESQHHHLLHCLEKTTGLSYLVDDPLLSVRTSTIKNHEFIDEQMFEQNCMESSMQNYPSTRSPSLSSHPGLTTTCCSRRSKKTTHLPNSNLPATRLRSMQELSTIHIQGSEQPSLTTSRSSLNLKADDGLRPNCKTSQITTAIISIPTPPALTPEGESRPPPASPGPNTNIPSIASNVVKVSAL
# Assay Overview: In vitro ion channel function
# Particulars: Ito/Kv4.3 IC50, Transient outward K^+ early repolarization

INSERT INTO results (compound, property, result) VALUES
  ('C[C@@H]1CN2c3c(cc4c(N5C(=O)OC[C@@H]5C)noc4c3F)CC3(C(=O)NC(=O)NC3=O)[C@H]2[C@H](C)O1 [Compound 1]', 'IC50', '> 292 µM');

// each compound listed below needs its IC50
1. Cc1noc2c(F)c3c(cc12)CC1(C(=O)NC(=O)NC1=O)[C@H]1[C@H](C)O[C@H](C)CN31 [Compound 5]
2. C[C@@H]1CN2c3c(cc4c(C(=O)NCC(F)(F)F)noc4c3F)CC3(C(=O)NC(=O)NC3=O)[C@H]2[C@H](C)O1 [Compound 7]

Outgoing:
1: > 100 µM; 2: > 90 µM

The measurements presented in this section are drawn from paper PMC4501059.
